- TARGET_OR_SYSTEM: cTAR DNA
- EXPERIMENT_DESCRIPTION: Binding affinity to HIV1 nucleocapsid protein (11 to 55 residues)-targeted Rh6G-5'-cTAR DNA-3'-Dabcyl assessed as inhibition of NC-induced viral Rh6G-5'-cTAR DNA-3'-Dabcyl destabilization by measuring fluorescence intensity up to 60 mins by fluorescence assay
Binning scheme for IC50: low bracket: < 20 µM; middle bracket: ≥ 20 µM and < 90 µM; high bracket: ≥ 90 µM

Req: Bin? "CCc1c(CNCCNCc2ccc[nH]2)c(CC)c(CNCCNCc2ccc[nH]2)c(CC)c1CNCCNCc1ccc[nH]1"
Resp: middle bracket

Req: Bin? "CCc1c(CN)c(CC)c2c(CC)c1CNCc1ccc([nH]1)CNCc1c(CC)c(CNCc3ccc[nH]3)c(CC)c(c1CC)CNCc1ccc([nH]1)CNC2"
Resp: low bracket

Req: Bin? "CCc1c(CNCc2ccc[nH]2)c(CC)c(CNCc2ccc[nH]2)c(CC)c1CNCc1ccc[nH]1"
Resp: high bracket

Req: Bin? "CCc1c(CNCc2ccc[nH]2)c(CC)c2c(CC)c1CNCc1ccc([nH]1)CNCc1c(CC)c(CNCc3ccc[nH]3)c(CC)c(c1CC)CNCc1ccc([nH]1)CNC2"
Resp: low bracket

Req: Bin? "CCc1c(CN[C@H]2CCCC[C@@H]2NCc2ccc[nH]2)c(CC)c(CN[C@H]2CCCC[C@@H]2NCc2ccc[nH]2)c(CC)c1CN[C@H]1CCCC[C@@H]1NCc1ccc[nH]1"
Resp: high bracket

Req: Bin? "CCc1c(CN[C@@H]2CCCC[C@H]2N)c(CC)c2c(CC)c1CN[C@@H]1CCCC[C@H]1NCc1ccc([nH]1)CN[C@@H]1CCCC[C@H]1NC2"
Resp: middle bracket

Req: Bin? "c1c[nH]c(CNCc2cc(CNCc3ccc[nH]3)c(CNCc3ccc[nH]3)c(CNCc3ccc[nH]3)c2)c1"
Resp: high bracket

Req: Bin? "CCc1c(CN)c(CC)c2c(CC)c1CNCc1ccc([nH]1)CNCc1c(CC)c(CN)c(CC)c(c1CC)CNCc1ccc([nH]1)CNC2"
Resp: low bracket

Req: Bin? "c1c[nH]c(CNCc2c(CNCc3ccc[nH]3)c(CNCc3ccc[nH]3)c(CNCc3ccc[nH]3)c(CNCc3ccc[nH]3)c2CNCc2ccc[nH]2)c1"
Resp: middle bracket

Req: Bin? "c1c[nH]c(CNCc2ccc(CNCc3ccc[nH]3)c3c(CNCc4ccc[nH]4)ccc(CNCc4ccc[nH]4)c23)c1"
Resp: low bracket

Req: Bin? "CCc1c2c(CC)c(CN[C@H]3CCCC[C@@H]3N)c(CC)c1CN[C@H]1CCCC[C@@H]1NCc1ccc([nH]1)CN[C@H]1CCCC[C@@H]1NC2"
Resp: middle bracket

Req: Bin? "CCc1c(CN[C@@H]2CCCC[C@H]2NCc2ccc[nH]2)c(CC)c(CN[C@@H]2CCCC[C@H]2NCc2ccc[nH]2)c(CC)c1CN[C@@H]1CCCC[C@H]1NCc1ccc[nH]1"
Resp: high bracket

====

- TARGET_OR_SYSTEM: cTAR DNA
- EXPERIMENT_DESCRIPTION: Binding affinity to HIV1 fluorescein-labeled-5'-cTAR DNA at cTAR to compound complex stoichiometry ratio of 1:3 using 80 mM NaCl by fluorescence anisotropy assay
- Type: nucleic-acid assay, Human immunodeficiency virus 1
MEASURED_ENDPOINT: Kd (nM)
# output: bare number, implied unit nM

Req: Could you tell me which Kd is on file for "CCc1c(CN)c(CC)c2c(CC)c1CNCc1ccc([nH]1)CNCc1c(CC)c(CNCc3ccc[nH]3)c(CC)c(c1CC)CNCc1ccc([nH]1)CNC2" ?
Resp: 2000
